The origin of these recorded values is paper PMC9460506.

test system: Bovine Serum Albumin (BSA)

{"COMPOUND": "O=C1O[C@H]([C@@H](O)CO)C(O)=C1O [VC, vitamin C]", "IC50": "< 100 µg/mL"}
